# measurement.target: human α1A-adrenoceptor (Homo sapiens, UniProt P35348)
# Construct: CHO cells stably expressing either the full‐length human α1A, α1B, or α1D‐adrenoceptor
# Sequence (P35348 1-466): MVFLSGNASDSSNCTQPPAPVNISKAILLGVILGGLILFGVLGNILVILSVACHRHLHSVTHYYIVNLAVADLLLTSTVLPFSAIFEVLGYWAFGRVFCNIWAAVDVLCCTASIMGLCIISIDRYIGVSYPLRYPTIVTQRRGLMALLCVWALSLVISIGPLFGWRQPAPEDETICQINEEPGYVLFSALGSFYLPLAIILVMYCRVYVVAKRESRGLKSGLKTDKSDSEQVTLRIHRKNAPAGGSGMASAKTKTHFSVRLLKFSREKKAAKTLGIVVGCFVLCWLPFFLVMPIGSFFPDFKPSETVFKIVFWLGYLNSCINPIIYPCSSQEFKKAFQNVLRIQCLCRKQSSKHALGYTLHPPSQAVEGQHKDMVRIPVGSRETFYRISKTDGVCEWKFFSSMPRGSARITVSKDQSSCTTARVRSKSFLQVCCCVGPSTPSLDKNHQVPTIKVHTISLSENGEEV
# measurement.protocol: [3H]prazosin whole-cell competition binding, CHO-α1A cells
# assay.conditions: log KD from 3H-prazosin whole cell binding, CHO cells; mean ± s.e.mean
test.readout: Log KD α1A
Answer with the value's number alone.

The following molecules have reported results that may help.
COc1ccccc1N1CCN(CCn2c(=O)[nH]c3c([nH]c4ccccc43)c2=O)CC1; -9.57
CC(C)OC(=O)c1cc2c(OCC(O)CNC(C)(C)C)cccc2[nH]1 (stereo not drawn); -5.24
COC1(C2=NCCN2)COc2ccccc2O1 (stereo not drawn); -6.51
COc1ccccc1N1CCN(CC2CN3C(=O)N(C)c4ccccc4C3=N2)CC1 (stereo not drawn); -9.06
CN1CC[C@]2(CCN3CCc4c(oc5ccccc45)[C@@H]3C2)N(C)C1=O.Cl; -6.76

# input for lookup
Please look up its Log KD α1A: O=C1Nc2ccccc2C2=NC(CN3CCN(c4ccccc4)CC3)CN12 (stereo not drawn) -8.19

###

# measurement.target: full-length human α1D-adrenoceptor (Homo sapiens)
# Sequence (P25100 1-572): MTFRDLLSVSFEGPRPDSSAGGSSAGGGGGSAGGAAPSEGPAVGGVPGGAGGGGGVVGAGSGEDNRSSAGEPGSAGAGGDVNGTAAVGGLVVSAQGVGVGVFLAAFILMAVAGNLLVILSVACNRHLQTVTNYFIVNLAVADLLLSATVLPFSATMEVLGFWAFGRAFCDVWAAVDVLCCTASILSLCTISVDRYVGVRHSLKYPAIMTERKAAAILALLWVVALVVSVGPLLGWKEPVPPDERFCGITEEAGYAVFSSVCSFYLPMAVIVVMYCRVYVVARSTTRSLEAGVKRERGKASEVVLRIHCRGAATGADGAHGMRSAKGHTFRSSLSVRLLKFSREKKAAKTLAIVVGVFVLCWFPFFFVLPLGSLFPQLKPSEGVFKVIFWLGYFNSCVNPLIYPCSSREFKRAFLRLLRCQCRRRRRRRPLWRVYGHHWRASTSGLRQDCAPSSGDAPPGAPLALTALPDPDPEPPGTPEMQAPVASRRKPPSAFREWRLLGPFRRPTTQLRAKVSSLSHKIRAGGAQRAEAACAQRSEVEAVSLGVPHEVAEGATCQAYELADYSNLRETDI
# measurement.protocol: [3H]prazosin whole-cell competition binding, CHO-α1D cells
# assay.conditions: Log KD α1D, single-component inhibition curve; given as log KD (negative); mean ± SE mean
Using Kd as the sorting value, the categories are low end (below 400 nM), middle (400 nM to below 3000 nM), high end (3000 nM or more)

O=C1Cc2cc(CCN3CCN(c4nsc5ccccc45)CC3)c(Cl)cc2N1; low end
OCCOCCN1CCN(C2=Nc3ccccc3Sc3ccccc32)CC1; low end
CN(C)CCCC1(c2ccc(F)cc2)OCc2cc(C#N)ccc21 (stereo not drawn); high end

Hi there! Could you help me figure out the category for COc1ccccc1OCCNCC(O)COc1cccc2[nH]c3ccccc3c12 (stereo not drawn) please? low end

// repeat for O=C1CCC(=O)N1C[C@H]1CC[C@H]2CN(c3ncccn3)CCN2C1 [Sunepitron] and report high end

// repeat for CN(C)CCC=C1c2ccccc2COc2ccccc21 [Doxepin] and report middle

// repeat for COc1ccccc1N1CCN(CCCNc2cc(=O)n(C)c(=O)n2C)CC1 and report middle

// repeat for O=C(NC1CCN(CCc2c[nH]c3ccccc23)CC1)c1ccccc1 and report middle
